Test system: 252836-082-R-J2-PDC tumor spheroids, viability;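 also: spheroids exposed to agents for seven days before readout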
Experiment: Anticancer human tumor 252836-082-R-J2-PDC patient-derived head and neck squamous cell carcinoma cell line growth inhibition [PI3K]
Conditions: second compound 0.01 µM; first compound 0.00316 µM; hits give low values; spheroids with HUVEC and MSC
# note: boundary value 90% maps to not satisfied; viability, T/C below it maps to satisfied

compound: CC(C)n1nc(-c2ccc3oc(N)nc3c2)c2c(N)ncnc21 + COc1c(OCCCN2CCOCC2)ccc2c3n(c(=NC(=O)c4cnc(N)nc4)nc12)CCN3
class name: satisfied

compound: CCN1CCN(Cc2ccc(Nc3ncc(F)c(-c4cc(F)c5nc(C)n(C(C)C)c5c4)n3)nc2)CC1 + COc1c(OCCCN2CCOCC2)ccc2c3n(c(=NC(=O)c4cnc(N)nc4)nc12)CCN3
class name: satisfied

compound: CC(=O)c1c(C)c2cnc(Nc3ccc(N4CCNCC4)cn3)nc2n(C2CCCC2)c1=O + COc1c(OCCCN2CCOCC2)ccc2c3n(c(=NC(=O)c4cnc(N)nc4)nc12)CCN3
class name: satisfied

compound: CC(C)n1nc(-c2ccc3oc(N)nc3c2)c2c(N)ncnc21 + CC(Nc1ccc2c(c1)OCCn1cc(N3C(=O)OCC3C(F)F)nc1-2)C(N)=O
class name: satisfied

compound: CC(=O)c1c(C)c2cnc(Nc3ccc(N4CCNCC4)cn3)nc2n(C2CCCC2)c1=O + CC(Nc1ccc2c(c1)OCCn1cc(N3C(=O)OCC3C(F)F)nc1-2)C(N)=O
class name: not satisfied

compound: Cn1ncnc1[C@H]1c2n[nH]c(=O)c3cc(F)cc(c23)N[C@@H]1c1ccc(F)cc1 + COc1c(OCCCN2CCOCC2)ccc2c3n(c(=NC(=O)c4cnc(N)nc4)nc12)CCN3
class name: satisfied
